The measurements presented in this section are drawn from ChEMBL document CHEMBL3751738.

# Assay info: Inhibition of butter milk xanthine oxidase (unknown origin) assessed as initial velocity of uric acid formation pre-incubated for 3 mins by spectrophotometry analysis
pIC50: −log10 of the molar value.
Measure name: pIC50

| Record smiles | pIC50 |
| --- | --- |
| Cc1nc(-c2cc3cc(NC4CCCC4)cc(C#N)c3[nH]2)sc1C(=O)O | 8.03 |
| Cc1nc(-c2cc3cc(CNS(C)(=O)=O)cc([N+](=O)[O-])c3[nH]2)sc1C(=O)O | 8.44 |
| Cc1nc(-c2cc3cc(OC(C)C)cc([N+](=O)[O-])c3[nH]2)sc1C(=O)O | 8.29 |
| COc1cc([N+](=O)[O-])c2[nH]c(-c3nc(C)c(C(=O)O)s3)cc2c1 | 8.15 |
| COc1ccc2cc(-c3nc(C)c(C(=O)O)s3)[nH]c2c1 | 5.66 |

[a] Cc1nc(-c2cc3ccc(OCC(C)C)cc3[nH]2)sc1C(=O)O
[b] Cc1nc(-c2cc3cc(OCC(C)C)ccc3[nH]2)sc1C(=O)O
[c] COc1ccc2[nH]c(-c3nc(C)c(C(=O)O)s3)cc2c1
[d] Cc1nc(-c2cc3cc(OC4CCCC4)cc(C#N)c3[nH]2)sc1C(=O)O
In this exercise, place the 4 molecules in ascending sequence of their recorded pIC50. Kindly provide the labels arranged according to the requested ordering. c, a, b, d
(c: 6.10, a: 6.32, b: 6.68, d: 8.24)

[a] Cc1nc(-c2cc3cc(Oc4ccccc4)ccc3[nH]2)sc1C(=O)O
[b] Cc1nc(-c2cc3cc(OCc4ccccc4)ccc3[nH]2)sc1C(=O)O
[c] Cc1nc(-c2cc3cc(N4CCCCC4)cc(C#N)c3[nH]2)sc1C(=O)O
[d] Cc1nc(-c2cc3cc(Oc4ccccc4)cc(Cl)c3[nH]2)sc1C(=O)O
Hey, can you sort those molecules up there by pIC50, smallest first? As an answer, provide the labels arranged in the order called for. b, a, d, c
(b: 6.28, a: 6.63, d: 7.84, c: 8.16)

[P] N#Cc1cc(-c2n[nH]c(-c3ccncc3)n2)ccn1
[Q] Cc1nc(-c2cc3cc(N)cc(C#N)c3[nH]2)sc1C(=O)O
Please indicate which entry, P or Q , has the lower recorded pIC50 value. Use the label to indicate which entry you chose. Q

[P] Cc1nc(-c2cc3cc(Oc4ccccc4)cc(C#N)c3[nH]2)sc1C(=O)O
[Q] Cc1nc(-c2ccc(OCC(C)C)c(C#N)c2)sc1C(=O)O
[R] Cc1nc(-c2cc3cc(Oc4ccccc4)cc([N+](=O)[O-])c3[nH]2)sc1C(=O)O
Give the ascending ranking of the items by reported pIC50. Dear reader, please state the labels in the requested order. R, P, Q
(R: 7.80, P: 8.05, Q: 8.51)

[a] Cc1nc(-c2cc3cc(OC(C)C)cc(C#N)c3[nH]2)sc1C(=O)O
[b] Cc1nc(-c2cc3cc(Oc4ccccc4)cc(Br)c3[nH]2)sc1C(=O)O
Looking only at measured pIC50, which entry is lower, a or b ? Identify your selection by its label. b
